Test system: NCI/ADR-RES ovarian
Assay name: NCI tumour cell line growth inhibition, 48 h
Where a SMILES comes first, the peptide text is derived from it. [ ]: non-standard residue; d: D form. The star is where a group is joined. Nle = CCCC[C@H](N)C(=O)O; Cbz = O=C(OCc1ccccc1)*
Give TGI for every item shown.

Observed TGI, NCI/ADR-RES ovarian, `Cc1ccc2cc3c(N)c4c(C)ccc(C)c4nc3nc2c1` : 16.7 µM

Observed TGI, NCI/ADR-RES ovarian, `Cc1ccc(-c2c3c(nn2-c2ccc(S(=O)(=O)NC(=O)Nc4ccccc4)cc2)-c2ccccc2C3)cc1` : 75.5 µM

Observed TGI, NCI/ADR-RES ovarian, c1ccc2c(c1)CN1CCCC1CN2 (centres undefined) : > 100 µM

Observed TGI, NCI/ADR-RES ovarian, `COc1cc2c3c(c1O)N=NC=3CCN=2` : > 100 µM

Observed TGI, NCI/ADR-RES ovarian, Cc1ccc(C2(C)CC/C(=N/N=C3/CCC(C)(c4ccc(C)c(C)c4)c4cc(C)c(C)cc43)c3cc(C)c(C)cc32)cc1C (centres undefined) : > 100 µM

Observed TGI, NCI/ADR-RES ovarian, `O=C(/C=C/c1cccc(O)c1)c1cccc(-n2cc(-c3ccc(Cl)cc3)[nH]c2=O)c1` : 5.96 µM

Observed TGI, NCI/ADR-RES ovarian, CC(C)C(O)(C(=O)OCN1C(=O)C2C3C=CC(C2C1=O)C1C2C(=O)N(COC(=O)C(O)(C(C)C)C(C)O)C(=O)C2C31)C(C)O (centres undefined) : > 100 µM

Observed TGI, NCI/ADR-RES ovarian, `O=C(N/N=C\c1c(O)ccc2ccccc12)c1ccncc1` : > 8.64 µM

Observed TGI, NCI/ADR-RES ovarian, `COC(=O)c1cc(CC2Cc3cc4c(cc3C2)CCC4)cc2c1CCC2` : > 100 µM

Observed TGI, NCI/ADR-RES ovarian, `CCOC(=O)Nn1cnnc1C` : > 100 µM

Observed TGI, NCI/ADR-RES ovarian, CC1(C)C2CCC1(C)[C@H](O)[C@H]2Nc1cc(C(F)(F)F)cc(C(F)(F)F)c1 (some centres undefined) : 7.13 µM

Observed TGI, NCI/ADR-RES ovarian, `COc1cc(-c2ccc(N=Nc3c(S(=O)(=O)O)cc4cc(S(=O)(=O)O)cc(N)c4c3O)c(OC)c2)ccc1N=Nc1c(S(=O)(=O)O)cc2cc(S(=O)(=O)O)cc(N)c2c1O` : > 100 µM

Observed TGI, NCI/ADR-RES ovarian, `C=C(CN1CCc2ccccc2C1)c1ccc(CCC(=O)Nc2ccccc2N)cc1` : 83.3 µM

Observed TGI, NCI/ADR-RES ovarian, `O=C1Cc2c([nH]c3ccc(Cl)cc23)-c2ccccc2N1` : > 100 µM

Observed TGI, NCI/ADR-RES ovarian, Cc1cc(C23OC4COC(C)(C)OC4C2OC(C)(C)O3)nc2ccccc12 (centres undefined) : > 100 µM

Observed TGI, NCI/ADR-RES ovarian, COC(=O)C1SC(N(C)c2ccccc2)=NC12c1ccccc1Nc1ccccc12 (centres undefined) : 65.4 µM

Observed TGI, NCI/ADR-RES ovarian, `C/C(Cc1ccc(Cl)cc1)=C(\c1ccc(OCCN2CCCCCC2)cc1)c1ccc(OC(=O)c2ccccc2)cc1` : 11.3 µM

Observed TGI, NCI/ADR-RES ovarian, `Nc1nonc1-c1nc2cnccc2n1C1CCCCC1` : > 25 µM

Observed TGI, NCI/ADR-RES ovarian, CCCC[C@@H](C=O)NC(=O)[C@H](CC(C)C)NC(=O)[C@H](CC(C)C)NC(=O)OCc1ccccc1 (Cbz-Leu-Leu-[Nle]-aldehyde) : > 32.6 µM

====

Tested on: KM12 colon
Assay name: NCI tumour cell line growth inhibition, 48 h
Give TGI for every item shown.

Observed TGI, KM12 colon, `COc1ccc(C2=Nn3c(nnc3-c3ccccc3)S/C2=C\c2ccc(-c3ccc([N+](=O)[O-])cc3)o2)cc1` : > 100 µM

Observed TGI, KM12 colon, `N#Cc1c(O)c(C=Nc2ccc(Cl)cc2)c(=O)n2c1[nH]c1ccccc12` : > 100 µM

Observed TGI, KM12 colon, O=C1NC(c2cccc3ccccc23)Nc2ccc(O)cc21 (centres undefined) : 83.9 µM

Observed TGI, KM12 colon, Brc1ccc2c(C3CN[C@@H](c4c[nH]c5cc(Br)ccc45)CN3)c[nH]c2c1 (some centres undefined) : 3.47 µM

Observed TGI, KM12 colon, `Cc1c2ccccc2c(C)n2c1nc1cc3ccccc3cc12` : 2.62 µM

Observed TGI, KM12 colon, `CC/C(=C(\c1ccc(Cl)cc1)c1ccc(OCCN2CCCCC2)cc1)c1ccc(O)cc1` : 3.74 µM

Observed TGI, KM12 colon, `CNC(=O)CNC(=O)CCC(=O)OC` : > 100 µM

Observed TGI, KM12 colon, `CC(C)OC(=O)Nc1ccc(-c2nc(-c3cccc(OCCN4CCOCC4)c3)c(-c3ccnc(Br)c3)[nH]2)cc1` : > 100 µM

Observed TGI, KM12 colon, `CC1=NN(C2=NS(=O)(=O)c3ccccc3N2C)C(=O)C1` : > 100 µM

Observed TGI, KM12 colon, `C/C(=C\CO)CC/C=C(\C)CNc1ccccc1` : > 100 µM

Observed TGI, KM12 colon, `Cc1c(C)c(S(=O)(=O)N(CCCCCCN)OCCCN)c(C)c2c1OC(C)(C)CC2` : 3.75 µM

Observed TGI, KM12 colon, `CC(=O)Nc1ccc(C2C(C(=O)Nc3ccccc3C)=C(C)NC(C)=C2C(=O)Nc2ccccc2C)cc1` : > 31.6 µM

Observed TGI, KM12 colon, COC(=O)C(C(=O)C(=O)Nc1nc(=S)[nH][nH]1)c1csc(N)n1 (centres undefined) : > 100 µM

Observed TGI, KM12 colon, `CC(=O)O[C@H]1C(=O)[C@@]2(C)[C@H]([C@H](OC(=O)c3ccccc3)[C@]3(O)C[C@H](OC(=O)[C@H](OC(=O)OC[C@@H]4COC(C)(C)O4)[C@@H](NC(=O)c4ccccc4)c4ccccc4)C(C)=C1C3(C)C)[C@]1(OC(C)=O)CO[C@@H]1C[C@@H]2O` : > 33.3 µM

Observed TGI, KM12 colon, `CC(C)Sc1nncc(/C(N)=N/O)n1` : > 100 µM

Observed TGI, KM12 colon, `Cc1cc(CN2CCCCC2)c(O)c(CN2CCCCC2)c1` : > 100 µM

Observed TGI, KM12 colon, `Cc1ccc2ccc(O)cc2c1` : > 100 µM

Observed TGI, KM12 colon, C[C@]12CCC3[C@@H](CC[C@@H]4c5nonc5CC[C@]34C)C1CCC2=O (some centres undefined) : 50.2 µM

Observed TGI, KM12 colon, `COc1cc(-c2ccc(N=Nc3c(S(=O)(=O)O)cc4cc(S(=O)(=O)O)cc(N)c4c3O)c(OC)c2)ccc1N=Nc1c(S(=O)(=O)O)cc2cc(S(=O)(=O)O)cc(N)c2c1O` : > 100 µM

====

Tested on: EKVX NSCLC
Assay name: NCI tumour cell line growth inhibition, 48 h
Assay endpoint: TGI

Per the records, this compound ( `CCOC(=O)C1=NC(c2ccccc2)(c2ccccc2)OC1=C(Cl)Cl` ) has TGI equal to > 100 µM

Per the records, this compound ( `COc1ccccc1NCc1nnc(CCCCCCCCc2nnc(CNc3ccccc3OC)o2)o1` ) has TGI equal to > 100 µM

Per the records, this compound ( `Cc1cc2c(cc1C)[n+]([O-])c(NCCCN(C)C)c(C#N)[n+]2[O-]` ) has TGI equal to > 100 µM

Per the records, this compound ( `O=C1C=CC(=O)C(c2cc(-c3ccc(Cl)cc3)nn2-c2ccccc2)=C1` ) has TGI equal to > 100 µM

Per the records, this compound ( `CC/C(=C(\c1ccc(Cl)cc1)c1ccc(OCCN2CCCCC2)cc1)c1ccc(O)cc1` ) has TGI equal to 4.35 µM

====

Tested on: T-47D breast
Assay endpoint: GI50

Per the records, this compound ( `O=c1c(Br)c(-c2ccccc2)[nH]c2ccccc12` ) has GI50 equal to 36400 nM

Per the records, this compound ( COc1ccccc1N1CCN(CC(O)COc2c(Br)c(Br)c(Br)c3c2OC(C)(C)C3)CC1 (stereo unspecified) ) has GI50 equal to 15800 nM

Per the records, this compound ( `Clc1ccc(-c2ccc(CNCC3CCNCC3)o2)c(-c2ccccc2)c1` ) has GI50 equal to 1740 nM

Per the records, this compound ( `CC(=O)Nc1cccc(C#Cc2cncnc2Nc2ccc(OCc3cccc(F)c3)c(Cl)c2)n1` ) has GI50 equal to 2570 nM

Per the records, this compound ( `COC(=O)/C=C1/SC(=Nc2ccc(C(F)(F)F)cc2)N(CCc2c[nH]c3ccc(O)cc23)C1=O` ) has GI50 equal to 2070 nM

Per the records, this compound ( `Cc1ccc(-c2c3c(nn2-c2ccc(S(=O)(=O)NC(=O)Nc4ccccc4)cc2)-c2ccccc2C3)cc1` ) has GI50 equal to 30700 nM

Per the records, this compound ( `c1ccc(N2CCN(CN3CCN(c4ccccc4)C3)C2)cc1` ) has GI50 equal to > 100000 nM

Per the records, this compound ( `COc1ccc(/C(COc2ccc3c(c2)oc(=O)c2cc(OC)ccc23)=N/O)cc1` ) has GI50 equal to 6900 nM

Per the records, this compound ( `CCCOC(=O)c1ccc2c(c1)[N+](=O)C(C(=O)c1ccccc1)=C(C(F)(F)F)[N+]2=O` ) has GI50 equal to 1800 nM

Per the records, this compound ( `CC(C)OC(=O)Nc1ccc(-c2nc(-c3cccc(OCCN4CCOCC4)c3)c(-c3ccnc(Br)c3)[nH]2)cc1` ) has GI50 equal to 2610 nM

Per the records, this compound ( `Cc1cc2nc3c4cc(C=O)ccc4n(CCN(C)C)c3nc2cc1C` ) has GI50 equal to 2140 nM
